System: RET (human), P07949 [V804M]
Sequence (P07949 whole entry V804M, looked up): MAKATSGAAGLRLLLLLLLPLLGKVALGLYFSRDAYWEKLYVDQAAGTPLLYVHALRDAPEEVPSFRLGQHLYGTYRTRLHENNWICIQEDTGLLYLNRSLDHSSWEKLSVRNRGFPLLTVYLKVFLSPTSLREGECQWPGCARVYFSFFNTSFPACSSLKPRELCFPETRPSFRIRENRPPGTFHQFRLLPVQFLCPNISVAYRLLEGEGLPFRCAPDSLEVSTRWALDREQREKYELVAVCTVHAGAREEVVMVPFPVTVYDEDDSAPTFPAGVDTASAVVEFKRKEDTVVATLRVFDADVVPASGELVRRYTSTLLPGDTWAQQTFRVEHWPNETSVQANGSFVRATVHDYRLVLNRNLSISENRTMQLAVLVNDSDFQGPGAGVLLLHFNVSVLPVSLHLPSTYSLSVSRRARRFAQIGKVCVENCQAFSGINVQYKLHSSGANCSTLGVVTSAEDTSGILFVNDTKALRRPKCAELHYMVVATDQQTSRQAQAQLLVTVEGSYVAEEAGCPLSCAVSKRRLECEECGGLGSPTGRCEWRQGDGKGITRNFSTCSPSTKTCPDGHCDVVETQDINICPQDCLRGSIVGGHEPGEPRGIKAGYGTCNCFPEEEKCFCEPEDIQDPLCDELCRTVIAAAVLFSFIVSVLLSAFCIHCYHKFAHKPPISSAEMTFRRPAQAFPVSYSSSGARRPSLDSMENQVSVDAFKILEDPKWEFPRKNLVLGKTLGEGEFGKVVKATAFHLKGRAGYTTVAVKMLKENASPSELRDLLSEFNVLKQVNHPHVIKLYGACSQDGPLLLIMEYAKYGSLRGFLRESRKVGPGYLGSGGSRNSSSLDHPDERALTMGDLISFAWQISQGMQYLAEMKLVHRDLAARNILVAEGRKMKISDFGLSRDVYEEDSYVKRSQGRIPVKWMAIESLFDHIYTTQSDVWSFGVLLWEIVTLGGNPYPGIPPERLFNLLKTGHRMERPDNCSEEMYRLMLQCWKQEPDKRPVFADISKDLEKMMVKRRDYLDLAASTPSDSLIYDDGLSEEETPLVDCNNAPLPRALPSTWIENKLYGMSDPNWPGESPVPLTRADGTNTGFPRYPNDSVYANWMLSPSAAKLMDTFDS
protocol details: KINOMEscan competition binding
assay setup: compound 10.0 µM
Recorded kinase still bound, per cent of control values for a group of compounds are listed next.
Lab book: enter the figure in %, no units written.

Example cases with answers are listed next.
>>> df
                                smiles_repr                             readout_name  result_value
0  Cn1cc(C2=C(c3ccc(Cl)cc3Cl)C(=O)NC2=O)c2ccccc21  kinase still bound, per cent of control            83
1  O=C1Nc2cc(Br)ccc2/C1=C1/Nc2ccccc2/C1=N\O  kinase still bound, per cent of control             0
2  Cc1cnc(-c2cnc(NCCNc3ccc(C#N)cn3)nc2-c2ccc(Cl)cc2Cl)[nH]1  kinase still bound, per cent of control            90

# ---- query compound ----
Q: Item: COc1ccc(CNC(=O)Nc2ncc([N+](=O)[O-])s2)cc1 Test system: RET (human), P07949 [V804M] Read-out: kinase still bound, per cent of control Value: ?
Result: 96

====

Entries and their kinase still bound, per cent of control
assayed target: MAP3K4 (human) (UniProt Q9Y6R4)
Sequence (Q9Y6R4 whole entry, looked up): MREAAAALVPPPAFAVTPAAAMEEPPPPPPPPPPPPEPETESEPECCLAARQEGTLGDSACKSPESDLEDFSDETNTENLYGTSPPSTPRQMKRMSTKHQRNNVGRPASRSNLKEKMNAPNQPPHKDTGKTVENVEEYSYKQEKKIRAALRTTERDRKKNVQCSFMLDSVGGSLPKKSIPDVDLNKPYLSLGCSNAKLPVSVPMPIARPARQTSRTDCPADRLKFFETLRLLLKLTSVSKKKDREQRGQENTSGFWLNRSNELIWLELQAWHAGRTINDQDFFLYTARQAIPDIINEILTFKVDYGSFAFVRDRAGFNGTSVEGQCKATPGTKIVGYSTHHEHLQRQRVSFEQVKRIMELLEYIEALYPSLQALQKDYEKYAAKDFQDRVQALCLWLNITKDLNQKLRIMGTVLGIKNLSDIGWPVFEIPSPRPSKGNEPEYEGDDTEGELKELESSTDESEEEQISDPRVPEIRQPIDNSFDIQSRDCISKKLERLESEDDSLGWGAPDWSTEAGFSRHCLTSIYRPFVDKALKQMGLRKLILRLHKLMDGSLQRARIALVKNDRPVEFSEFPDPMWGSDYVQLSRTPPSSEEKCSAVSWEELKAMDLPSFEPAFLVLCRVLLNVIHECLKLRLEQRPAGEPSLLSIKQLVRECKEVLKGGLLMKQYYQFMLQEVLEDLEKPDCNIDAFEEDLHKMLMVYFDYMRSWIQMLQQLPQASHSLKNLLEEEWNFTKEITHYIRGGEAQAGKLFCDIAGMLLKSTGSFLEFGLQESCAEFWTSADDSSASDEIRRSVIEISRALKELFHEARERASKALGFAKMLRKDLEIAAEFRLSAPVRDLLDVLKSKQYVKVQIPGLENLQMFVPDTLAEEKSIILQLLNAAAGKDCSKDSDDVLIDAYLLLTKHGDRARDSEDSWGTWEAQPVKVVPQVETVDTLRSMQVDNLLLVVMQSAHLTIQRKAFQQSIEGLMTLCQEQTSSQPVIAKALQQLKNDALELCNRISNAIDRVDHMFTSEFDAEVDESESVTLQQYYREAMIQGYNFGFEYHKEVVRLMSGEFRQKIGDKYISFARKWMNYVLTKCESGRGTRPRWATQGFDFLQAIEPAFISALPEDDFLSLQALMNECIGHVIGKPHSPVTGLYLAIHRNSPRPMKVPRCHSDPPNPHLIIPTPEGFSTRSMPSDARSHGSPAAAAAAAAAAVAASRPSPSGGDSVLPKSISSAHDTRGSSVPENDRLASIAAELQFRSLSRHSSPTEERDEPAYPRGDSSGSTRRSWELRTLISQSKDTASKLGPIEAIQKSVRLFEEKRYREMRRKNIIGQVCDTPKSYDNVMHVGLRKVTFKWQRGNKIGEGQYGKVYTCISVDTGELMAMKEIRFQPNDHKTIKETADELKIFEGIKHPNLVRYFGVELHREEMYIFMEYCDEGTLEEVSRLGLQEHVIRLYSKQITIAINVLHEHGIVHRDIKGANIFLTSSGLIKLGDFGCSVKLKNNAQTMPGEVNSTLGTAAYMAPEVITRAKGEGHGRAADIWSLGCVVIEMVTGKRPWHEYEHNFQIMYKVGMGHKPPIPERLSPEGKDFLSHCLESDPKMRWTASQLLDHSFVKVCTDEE
protocol details: KINOMEscan competition binding
assay setup: compound 10.0 µM

Previously resolved entries follow.
                                smiles_repr                             readout_name  result_value
0  Cn1cc(C2=C(c3ccc(Cl)cc3Cl)C(=O)NC2=O)c2ccccc21  kinase still bound, per cent of control           98%
1  COc1ccc(CNC(=O)Nc2ncc([N+](=O)[O-])s2)cc1  kinase still bound, per cent of control          100%
2  Cc1cnc(-c2cnc(NCCNc3ccc(C#N)cn3)nc2-c2ccc(Cl)cc2Cl)[nH]1  kinase still bound, per cent of control          100%

Let's switch to this compound now.
Q: Query: kinase still bound, per cent of control; subject: O=C1Nc2cc(Br)ccc2/C1=C1/Nc2ccccc2/C1=N\O
Result: 85%

====

assayed target: CDKL2 (human)
protocol details: KINOMEscan competition binding
assay setup: compound 10.0 µM
readout name: kinase still bound, per cent of control (%)
Supply the numeric figure in %, leaving out any unit text.

>>> df
                                smiles_repr  reading_unit  result_value
0  O=C1Nc2cc(Br)ccc2/C1=C1/Nc2ccccc2/C1=N\O             %           6.1
1  Cc1cnc(-c2cnc(NCCNc3ccc(C#N)cn3)nc2-c2ccc(Cl)cc2Cl)[nH]1             %           3.8
2  Cn1cc(C2=C(c3ccc(Cl)cc3Cl)C(=O)NC2=O)c2ccccc21             %            87

Attention now shifts to the item below.
Q: For COc1ccc(CNC(=O)Nc2ncc([N+](=O)[O-])s2)cc1 , what is its reported kinase still bound, per cent of control?
Result: 40

====

assayed target: AURKB (human) (UniProt Q96GD4)
Sequence (Q96GD4 whole entry, looked up): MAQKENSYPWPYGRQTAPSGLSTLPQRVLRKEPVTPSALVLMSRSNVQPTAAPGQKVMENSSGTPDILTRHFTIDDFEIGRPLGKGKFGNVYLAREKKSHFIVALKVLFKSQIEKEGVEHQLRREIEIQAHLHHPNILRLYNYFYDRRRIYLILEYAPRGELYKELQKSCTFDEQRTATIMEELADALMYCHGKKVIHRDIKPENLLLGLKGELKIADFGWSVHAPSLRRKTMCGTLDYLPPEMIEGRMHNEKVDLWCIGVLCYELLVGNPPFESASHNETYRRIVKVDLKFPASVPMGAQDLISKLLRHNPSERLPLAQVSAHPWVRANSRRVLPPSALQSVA
protocol details: KINOMEscan competition binding
assay setup: compound 10.0 µM
readout name: kinase still bound, per cent of control (%)
Respond with the bare value in %.

Solved cases (2 shown):
In [3]: df
Out[3]:
                                smiles_repr  result_value
0  COc1ccc(CNC(=O)Nc2ncc([N+](=O)[O-])s2)cc1            97
1  Cc1cnc(-c2cnc(NCCNc3ccc(C#N)cn3)nc2-c2ccc(Cl)cc2Cl)[nH]1            94

Q: Reported kinase still bound, per cent of control, compound Cn1cc(C2=C(c3ccc(Cl)cc3Cl)C(=O)NC2=O)c2ccccc21 : ____
Result: 96

Q: Entry O=C1Nc2cc(Br)ccc2/C1=C1/Nc2ccccc2/C1=N\O please
Result: 2.8
